Provenance of the data: patent US20250144067A1

# Test system: NCI-H292 lung cancer cells
# ASSAY REMARKS: FDA drug screening, complete media vs cholesterol-free media without statin (TABLE 1)
# Type: cell-based, human
# APPLIED CONDITIONS: Complete minus Cholesterol-free; >0 enhanced anti-cancer activity, about 0 neutral, <0 antagonist
Where a name gives a salt, the structure may show the parent alone.
So basically: is Difference under -0.2? Then true (1). Not under? Then false (0).

Report whether reported Difference is lower than -0.2 (strictly) for Cc1cc2ncc(C(=O)NCC(C)(C)NCC(=O)N3CCC[C@H]3C#N)cn2n1
true (1)

Please indicate whether the reported Difference of Cc1[nH]c(=O)c(C#N)cc1-c1ccc2nccn2c1 [Olprinone (Hydrochloride)] is strictly below -0.2.
true (1)

Lab log: compare recorded Difference with -0.2; is it strictly lower for C[C@@H]1C[C@H]2[C@@H]3CCC4=CC(=O)C=C[C@]4(C)[C@@]3(F)[C@@H](O)C[C@]2(C)[C@@]1(O)C(=O)CO ?
false (0)

Could you please tell me whether Difference recorded for CCCCOCCOCCOCc1cc2c(cc1CCC)OCO2 [Piperonyl butoxide] is less than -0.2?
true (1)

Answer whether the compound COC1=C(OC)C(=O)C(CCCCCCCCCCO)=C(C)C1=O has Difference strictly less than -0.2
true (1)

Given the entry Cc1[nH]c(=O)c(C#N)cc1-c1ccncc1 , would its reported Difference be below -0.2?
false (0)

Hello, is Difference of the following compound strictly smaller than -0.2? CCCCCCCC/C=C\CCCCCCCC(=O)O
true (1)

Record O=C(CCBr)N1CCN(C(=O)CCBr)CC1 : is its Difference strictly below -0.2?
true (1)

Please state whether Difference is below -0.2 for O=C(NC[C@H]1CN(c2ccc(N3CCOCC3=O)cc2)C(=O)O1)c1ccc(Cl)s1
true (1)

Hi there! Is Difference for CNC[C@H](O)[C@@H](O)[C@H](O)[C@H](O)CO.O=C(O)c1ccc2nc(-c3cc(Cl)cc(Cl)c3)oc2c1 below -0.2, do you know?
false (0)

Below -0.2 on Difference? Entry COc1c(OCCCN2CCOCC2)ccc2c1N=C(NC(=O)c1cnc(N)nc1)N1CCN=C21 [Copanlisib (dihydrochloride)]
false (0)

Consider the compound CC(C)NCC(O)COc1ccc(CCOCC2CC2)cc1 (stereo not shown) [Betaxolol (hydrochloride)] . Is its Difference strictly less than -0.2?
false (0)

Quick check: does C[C@]12CC[C@H]3[C@@H](CC[C@@]45O[C@@H]4C(O)=C(C#N)C[C@]35C)[C@@H]1CC[C@@H]2O have Difference under -0.2?
true (1)

Find out if reported Difference for CCCCNC(=O)NS(=O)(=O)c1ccc(C)cc1 [Tolbutamide] is less than -0.2
true (1)

Please determine if CCOCCn1c(C2CCN(CCc3ccc(C(C)(C)C(=O)O)cc3)CC2)nc2ccccc21 is below -0.2 in terms of Difference.
true (1)

Input C=CC(=O)Nc1cc(Nc2nccc(-c3cn(C4CC4)c4ccccc34)n2)c(OC)cc1N(C)CCN(C)C [Almonertinib (hydrochloride)] ; condition: Difference strictly below -0.2. Does it hold?
false (0)

Identify whether the compound Nc1ccn([C@H]2CC[C@@H](CO)O2)c(=O)n1 records Difference below -0.2.
true (1)

Consider CCC(=O)OCC(=O)[C@@]1(OC(=O)CC)[C@@H](C)C[C@H]2[C@@H]3CCC4=CC(=O)C=C[C@]4(C)[C@@]3(F)[C@@H](O)C[C@@]21C [Betamethasone dipropionate] . Does its Difference lie strictly below -0.2?
true (1)

Criterion: Difference strictly below -0.2. Is it met by CCOC(=O)c1ncn2c1CN(C)C(=O)c1cc(F)ccc1-2 ?
false (0)

Does the reported Difference of the following compound sit strictly below -0.2? O=C(C[S+]([O-])Cc1ccco1)NC/C=C\COc1cc(CN2CCCCC2)ccn1 (stereo not shown)
false (0)

A record lists COc1ccc(CN2C3CC2CN(c2ccc(-c4cc(OCC(C)(C)O)cn5ncc(C#N)c45)cn2)C3)cn1 . Is its Difference below -0.2?
false (0)

# strict comparison: is reported Difference < -0.2? input = COc1ccc2cccc(CCNC(C)=O)c2c1 [Agomelatine (hydrochloride)]
false (0)

Is the reported Difference for CC(C)(C(=O)O)c1ccc(C(O)CCCN2CCC(C(O)(c3ccccc3)c3ccccc3)CC2)cc1 (stereo not shown) [Fexofenadine (hydrochloride)] strictly below -0.2?
false (0)

Here's an entry: c1ccc(CC2=NCCN2)cc1 [Tolazoline (hydrochloride)] . Is its Difference below -0.2?
true (1)

In plain terms, does O=C(N/N=C/c1ccc([N+](=O)[O-])o1)c1ccc(O)cc1 [Nifuroxazide] come in under -0.2 for Difference?
false (0)

Problem: For the compound CC1CCc2c(N3CCC(O)CC3)c(F)cc3c(=O)c(C(=O)O)cn1c23 (stereo not shown) , is Difference under -0.2?
false (0)

Could you please tell me whether Difference recorded for CO/N=C(\C(=O)N[C@@H]1C(=O)N2C(C(=O)[O-])=C(C[n+]3ccn4ncccc43)CS[C@H]12)c1nsc(N)n1 [Cefozopran (hydrochloride)] is less than -0.2?
false (0)

is_below(Difference, -0.2) for Cc1[nH]cnc1CN1CCc2c(c3ccccc3n2C)C1=O [Alosetron (Hydrochloride)] ?
false (0)

# TODO verify Difference < -0.2 strictly for this compound: Cc1onc(-c2ccccc2)c1C(=O)N[C@@H]1C(=O)N2[C@@H]1SC(C)(C)[C@@H]2C(=O)O [Oxacillin (sodium monohydrate)]
false (0)

Does CO[C@H]1C(=O)[C@]2(C)[C@@H](OC)C[C@H]3OC[C@@]3(OC(C)=O)[C@H]2[C@H](OC(=O)c2ccccc2)[C@]2(O)C[C@H](OC(=O)[C@H](O)[C@@H](NC(=O)OC(C)(C)C)c3ccccc3)C(C)=C1C2(C)C have Difference strictly under -0.2?
false (0)
